Subject of test: Oatp1b2 (Mus musculus)
Sequence (Q9JJL3 1-689): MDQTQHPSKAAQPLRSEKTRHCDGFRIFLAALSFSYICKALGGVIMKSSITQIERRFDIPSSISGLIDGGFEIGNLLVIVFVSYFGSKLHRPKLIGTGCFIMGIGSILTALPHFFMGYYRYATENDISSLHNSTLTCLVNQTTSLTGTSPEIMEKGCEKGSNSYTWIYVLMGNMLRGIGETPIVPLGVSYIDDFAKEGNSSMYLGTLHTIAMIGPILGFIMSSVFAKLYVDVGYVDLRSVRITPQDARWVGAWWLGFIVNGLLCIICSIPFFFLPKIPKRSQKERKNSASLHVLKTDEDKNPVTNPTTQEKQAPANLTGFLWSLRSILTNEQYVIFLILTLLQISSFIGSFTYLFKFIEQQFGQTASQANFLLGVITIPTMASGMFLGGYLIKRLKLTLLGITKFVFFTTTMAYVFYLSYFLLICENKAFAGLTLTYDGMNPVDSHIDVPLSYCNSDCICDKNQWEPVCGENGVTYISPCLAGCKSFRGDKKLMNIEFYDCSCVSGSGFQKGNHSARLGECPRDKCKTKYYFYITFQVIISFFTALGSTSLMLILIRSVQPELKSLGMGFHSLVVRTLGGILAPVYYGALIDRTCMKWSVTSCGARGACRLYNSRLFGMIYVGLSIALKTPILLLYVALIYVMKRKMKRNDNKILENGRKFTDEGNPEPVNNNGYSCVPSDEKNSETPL
Protocol notes: Untargeted metabolomics of plasma from untreated wild-type and Oatp1b2(−/−) mice
Reported conditions: plasma of untreated Oatp1b2-deficient mice; raw area counts rescaled to median = 1
Reported Mean value KO values follow for various compounds
Keep it simple and answer with nothing but the number.

Find the measured Mean value KO of CCCCCCCCCCCCCCCCCCCCCCCC(=O)OC[C@@H](O)COP(=O)([O-])OCC[N+](C)(C)C with Oatp1b2 (Mus musculus) as test system.
1.16

Find the measured Mean value KO of CCCCCCCC/C=C\CCCCCCCC(=O)OC[C@@H](O)COP(=O)(O)OCCN with Oatp1b2 (Mus musculus) as test system.
1.30

Find the measured Mean value KO of C=CC1=C(C)/C(=C/C2=NC(=C\c3[nH]c(/C=C4\NC(=O)C(C)=C4C=C)c(C)c3CCC(=O)O)/C(CCC(=O)O)=C2C)NC1=O with Oatp1b2 (Mus musculus) as test system.
1.84

Find the measured Mean value KO of CCCCCCC(=O)NCC(=O)O with Oatp1b2 (Mus musculus) as test system.
1.32

Find the measured Mean value KO of O=C(O)C1CCCCN1 (centres unmarked) [pipecolate] with Oatp1b2 (Mus musculus) as test system.
1.05

Find the measured Mean value KO of CCCCC/C=C\C/C=C\CCCCCCCC(=O)OC[C@@H](O)COP(=O)(O)OC1[C@H](O)[C@H](O)C(O)[C@H](O)[C@H]1O (some centres unmarked) with Oatp1b2 (Mus musculus) as test system.
1.27

----------
Reported Mean value WT values follow for various compounds
Subject of test: Oatp1b2 (Mus musculus)
Protocol notes: Untargeted metabolomics of plasma from untreated wild-type and Oatp1b2(−/−) mice
Reported conditions: plasma of untreated wild-type mice; raw area counts rescaled to median = 1

CCCCCCCCCCCCCCCC(=O)OC[C@H](COP(=O)([O-])OCC[N+](C)(C)C)OC(=O)CCCCCCCCCCCCCCC [1,2-dipalmitoyl-GPC (16:0/16:0)] : .901
CCCCCCCC/C=C\CCCCCCCC(=O)OCC(O)COP(=O)(O)OCC(O)CO (stereo not drawn) [1-oleoyl-GPG (18:1)] : .219
CC(=O)Nc1ccc(C(=O)O)cc1 [4-acetamidobenzoate] : .685
CCCCC/C=C\C/C=C\CCCCCCCC(=O)OC[C@@H](O)COP(=O)(O)OC1[C@H](O)[C@H](O)C(O)[C@H](O)[C@H]1O (stereo partly drawn) [1-linoleoyl-GPI (18:2)] : .765
C[C@H](CCC(=O)O)[C@H]1CC[C@H]2[C@@H]3C(=O)C[C@@H]4C[C@H](O)CC[C@]4(C)[C@H]3C[C@H](O)[C@]12C [7-ketodeoxycholate] : .362

Find the measured Mean value WT of CCCCCCCC/C=C\CCCCCCCC(=O)OC[C@@H](O)COP(=O)(O)OC1[C@H](O)[C@H](O)C(O)[C@H](O)[C@H]1O (stereo partly drawn) [1-oleoyl-GPI (18:1)] with Oatp1b2 (Mus musculus) as test system.
.729

----------
Subject of test: Oatp1b2 (Mus musculus, UniProt Q9JJL3)
Protocol notes: Untargeted metabolomics of plasma from untreated wild-type and Oatp1b2(−/−) mice
Reported conditions: plasma of untreated Oatp1b2-deficient mice; raw area counts rescaled to median = 1
Reported Mean value KO values follow for various compounds
Keep it simple and answer with nothing but the number.

Reference set, count: 4
C[C@H](CCC(=O)O)[C@H]1CC[C@H]2[C@@H]3C[C@H](O)[C@@H]4C[C@H](O)CC[C@]4(C)[C@H]3CC[C@]12C [hyodeoxycholate] : 3.94
CCCCC/C=C\C/C=C\CCCCCCCC(=O)OC[C@@H](O)COP(=O)(O)O : 1.41
Cc1ncc(CO)c(C=O)c1O : 1.28
CCCCCCCCCCCCCCCCCC(=O)O[C@H](COC(=O)CCCCCCCCCCCCCCC)COP(=O)([O-])OCC[N+](C)(C)C : 1.09

Indicate its recorded Mean value KO; the compound in question is CC(=O)N[C@@H](CCCCNC(N)=O)C(=O)O
1.17

----------
Reported Mean value KO values follow for various compounds
Subject of test: UniProtKB Q9JJL3
Protocol notes: Untargeted metabolomics of plasma from untreated wild-type and Oatp1b2(−/−) mice
Reported conditions: plasma of untreated Oatp1b2-deficient mice; raw area counts rescaled to median = 1
Keep it simple and answer with nothing but the number.

CCCCCCCCCCCCCC(=O)O[C@H](CC(=O)[O-])C[N+](C)(C)C : 1.26
CCCCC/C=C\C/C=C\C/C=C\C/C=C\CCCC(=O)O[C@H](CO/C=C\CCCCCCCCCCCCCC)COP(=O)([O-])OCC[N+](C)(C)C : 1.30
CCCCCCCCCCCCCCCCCC(N)=O [stearamide (18:0)] : 1.19
OC[C@@H](O)[C@@H](O)CO : 1.22

Could you now consider this next compound?
Indicate its recorded Mean value KO; the compound in question is C[N+](C)(C)CC(CC(=O)[O-])OC(=O)CCCCCCCCCCCCCCCCC(=O)O (centres unmarked)
1.00

----------
Subject of test: Oatp1b2 (Mus musculus, UniProt Q9JJL3)
Sequence (Q9JJL3 1-689): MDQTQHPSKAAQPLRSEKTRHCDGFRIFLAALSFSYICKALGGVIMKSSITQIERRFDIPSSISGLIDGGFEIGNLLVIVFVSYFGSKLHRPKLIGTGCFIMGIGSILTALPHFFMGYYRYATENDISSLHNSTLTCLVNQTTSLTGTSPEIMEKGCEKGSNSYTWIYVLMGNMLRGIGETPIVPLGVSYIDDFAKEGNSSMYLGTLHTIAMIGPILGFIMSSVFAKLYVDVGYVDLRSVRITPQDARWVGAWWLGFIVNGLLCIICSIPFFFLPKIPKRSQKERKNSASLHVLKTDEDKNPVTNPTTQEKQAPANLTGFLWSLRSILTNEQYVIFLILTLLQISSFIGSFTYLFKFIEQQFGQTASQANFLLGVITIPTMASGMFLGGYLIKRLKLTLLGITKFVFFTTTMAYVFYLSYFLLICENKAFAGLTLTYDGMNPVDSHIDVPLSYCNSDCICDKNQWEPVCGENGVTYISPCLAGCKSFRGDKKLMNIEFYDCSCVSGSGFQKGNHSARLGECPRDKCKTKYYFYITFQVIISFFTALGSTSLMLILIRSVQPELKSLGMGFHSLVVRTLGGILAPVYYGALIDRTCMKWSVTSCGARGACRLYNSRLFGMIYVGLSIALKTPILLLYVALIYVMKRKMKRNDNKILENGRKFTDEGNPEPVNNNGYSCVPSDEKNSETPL
Protocol notes: Untargeted metabolomics of plasma from untreated wild-type and Oatp1b2(−/−) mice
Reported conditions: plasma of untreated Oatp1b2-deficient (KO) vs wild-type (WT) mice; semi-quantitative; positive = higher in KO; n = 6 per group
Measured quantity: Fold of Change KO/WT

Reference set, count: 3
C[C@H](CCC(=O)NCCS(=O)(=O)O)[C@H]1CC[C@H]2[C@@H]3CC[C@@H]4C[C@H](OS(=O)(=O)O)CC[C@]4(C)[C@H]3CC[C@]12C [taurolithocholate 3-sulfate] : 2.25
CCCCCC/C=C\CCCCCCCC(=O)O[C@H](CO)COP(=O)([O-])OCC[N+](C)(C)C [2-palmitoleoyl-GPC (16:1)] : 1.95
C[C@H](CCC(=O)O)[C@H]1CC[C@H]2[C@@H]3CC(=O)[C@@H]4C[C@H](O)CC[C@]4(C)[C@H]3CC[C@]12C [6-oxolithocholate] : 1.43

Indicate its recorded Fold of Change KO/WT; the compound in question is COP(=O)(O)O [methylphosphate]
1.27

This collection of values is drawn from paper PMC9502272.
